- System: AA-as7 kinase (Aurora A LI85V, L201G) (Mus musculus, UniProt P97477, L185V/L201G)
- Construct: the Aurora A mutant is the double mutant Aurora A (AA-as7); 6-His
- Sequence (P97477 1-395 L185V/L201G): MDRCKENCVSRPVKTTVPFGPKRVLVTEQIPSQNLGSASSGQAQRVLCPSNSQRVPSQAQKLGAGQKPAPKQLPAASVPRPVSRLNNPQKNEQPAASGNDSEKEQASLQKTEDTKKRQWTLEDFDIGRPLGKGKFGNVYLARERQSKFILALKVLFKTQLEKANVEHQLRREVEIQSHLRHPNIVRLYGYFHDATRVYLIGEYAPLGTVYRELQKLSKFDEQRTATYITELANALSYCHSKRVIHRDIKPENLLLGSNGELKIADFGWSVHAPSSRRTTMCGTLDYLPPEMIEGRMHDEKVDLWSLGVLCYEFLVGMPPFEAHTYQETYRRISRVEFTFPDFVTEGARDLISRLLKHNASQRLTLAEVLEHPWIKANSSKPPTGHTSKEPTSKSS
- Protocol Description: In vitro kinase assay with AA-as7 and TPX2
- Assay Context: AA-as7 kinase
Measured Quantity: pIC50
In simple prose, pIC50 is minus the logarithm base ten of a concentration in moles per litre.

Entry CC(C)(C)n1nc(Cc2cccc3ccccc23)c2c(N)ncnc21 [1-NM-PP1] : reported pIC50 = ?
8.77

Measured values drawn from patent US20130253037A1 for this set.
